All values here come from ChEMBL document CHEMBL1133355.

assay.system: 5-hydroxytryptamine receptor 2A (Homo sapiens)
assay.protocol: Functional antagonist activity of compound was determined by fluorescence-based assay measuring intracellular calcium mobilization for 5-HT2a receptor cell line
pEC50: −log10 of the molar value.
readout.label: pEC50

compound	val
CNCCc1cn2c3c(cc(F)cc13)CCC2C (stereo unspecified)	5.96

* * *

assay.system: UniProt P28335
assay.protocol: Functional agonist activity of compound was determined by fluorescence-based assay measuring intracellular calcium mobilization for 5-HT2c receptor cell line

molecule	EC50
NCCc1cn2c3c(cccc13)CCC2	0.2 nM
CC1CCc2cc(F)cc3c(CCN)cn1c23 (stereo unspecified)	5.7 nM
Cc1c(CCN)c2cc(F)cc3c2n1C(C)CC3 (stereo unspecified)	41 nM
CNCCc1cn2c3c(cc(F)cc13)CCC2C (stereo unspecified)	180 nM
Cc1c(CCN)c2cccc3c2n1CCC3	9 nM
NCCc1cn2c3c(cc(Cl)cc13)SCC2	0.23 nM

* * *

assay.system: 5-hydroxytryptamine receptor 2C (Homo sapiens, UniProt P28335)
Sequence (P28335 whole entry): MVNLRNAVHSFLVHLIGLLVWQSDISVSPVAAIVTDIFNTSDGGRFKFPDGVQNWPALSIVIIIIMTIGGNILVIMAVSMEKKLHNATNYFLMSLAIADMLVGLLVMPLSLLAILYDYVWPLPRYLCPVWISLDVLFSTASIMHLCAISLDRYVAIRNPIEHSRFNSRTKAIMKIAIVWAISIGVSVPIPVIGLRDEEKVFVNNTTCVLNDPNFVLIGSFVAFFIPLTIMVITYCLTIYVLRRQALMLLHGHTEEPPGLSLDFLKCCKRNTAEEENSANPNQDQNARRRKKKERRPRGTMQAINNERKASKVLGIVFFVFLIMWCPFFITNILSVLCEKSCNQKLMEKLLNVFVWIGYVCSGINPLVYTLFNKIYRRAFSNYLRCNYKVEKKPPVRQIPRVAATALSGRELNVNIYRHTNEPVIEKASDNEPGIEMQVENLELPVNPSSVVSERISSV
Each entry below carries its recorded Ki.

molecule	assay.system	Ki
Cc1c(CCN)c2cc(F)cc3c2n1C(C)CC3 (stereo unspecified)	5-hydroxytryptamine receptor 2C (Homo sapiens, UniProt P28335)	0.194 µM
Cc1c(CCN)c2cccc3c2n1CCC3	5-hydroxytryptamine receptor 2C (Homo sapiens, UniProt P28335)	0.225 µM
NCCc1cn2c3c(cccc13)CCC2	5-hydroxytryptamine receptor 2C (Homo sapiens, UniProt P28335)	0.041 µM
CNCCc1cn2c3c(cc(F)cc13)CCC2C (stereo unspecified)	5-hydroxytryptamine receptor 2C (Homo sapiens, UniProt P28335)	0.033 µM
CC1CCc2cc(F)cc3c(CCN)cn1c23 (stereo unspecified)	5-hydroxytryptamine receptor 2C (Homo sapiens, UniProt P28335)	0.018 µM
NCCc1cn2c3c(cc(Cl)cc13)SCC2	5-hydroxytryptamine receptor 2C (Homo sapiens, UniProt P28335)	0.047 µM

* * *

assay.protocol: Binding ratio of compound to 5-HT2a to that of 5-HT2c was determined
Is Ratio at least 20? Then 1 (yes). If not, 0 (no).

molecule	class
Cc1c(CCN)c2cccc3c2n1CCC3	0 (no)
CNCCc1cn2c3c(cc(F)cc13)CCC2C (stereo unspecified)	1 (yes)
NCCc1cn2c3c(cc(Cl)cc13)SCC2	0 (no)
Cc1c(CCN)c2cc(F)cc3c2n1C(C)CC3 (stereo unspecified)	0 (no)
NCCc1cn2c3c(cccc13)CCC2	0 (no)
CC1CCc2cc(F)cc3c(CCN)cn1c23 (stereo unspecified)	1 (yes)

* * *

assay.system: 5-hydroxytryptamine receptor 2A (Homo sapiens)
assay.protocol: Functional agonist activity of compound was determined by fluorescence-based assay measuring intracellular calcium mobilization for 5-HT2a receptor cell line
pEC50: −log10 of the molar value.

compound	assay.system	value.comparator	pEC50
CC1CCc2cc(F)cc3c(CCN)cn1c23 (centres undefined)	5-hydroxytryptamine receptor 2A (Homo sapiens)	=	6.57
NCCc1cn2c3c(cc(Cl)cc13)SCC2	5-hydroxytryptamine receptor 2A (Homo sapiens)	=	6.46
CNCCc1cn2c3c(cc(F)cc13)CCC2C (centres undefined)	5-hydroxytryptamine receptor 2A (Homo sapiens)	<	5.00
NCCc1cn2c3c(cccc13)CCC2	5-hydroxytryptamine receptor 2A (Homo sapiens)	=	6.84

* * *

Each entry below carries its recorded Ki.
assay.system: 5-hydroxytryptamine receptor 2A (Homo sapiens, UniProt P28223)
Sequence (P28223 whole entry): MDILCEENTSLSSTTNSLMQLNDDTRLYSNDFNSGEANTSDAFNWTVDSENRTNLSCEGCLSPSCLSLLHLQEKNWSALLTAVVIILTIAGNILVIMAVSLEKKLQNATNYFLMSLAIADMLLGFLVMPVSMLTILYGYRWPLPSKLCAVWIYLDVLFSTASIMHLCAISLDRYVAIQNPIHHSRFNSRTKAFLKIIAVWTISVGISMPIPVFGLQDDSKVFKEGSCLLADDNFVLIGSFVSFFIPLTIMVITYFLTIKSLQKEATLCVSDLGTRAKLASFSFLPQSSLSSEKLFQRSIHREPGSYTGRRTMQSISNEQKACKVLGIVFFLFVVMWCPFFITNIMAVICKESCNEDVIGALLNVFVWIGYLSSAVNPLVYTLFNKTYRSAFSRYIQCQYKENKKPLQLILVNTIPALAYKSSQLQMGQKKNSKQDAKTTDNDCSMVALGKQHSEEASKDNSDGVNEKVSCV
assay.protocol: In vitro binding affinity towards human 5-hydroxytryptamine 2A receptor expressed in HEK293 cells was determined using [3H]ketanserin as radioligand
Format: cell-based
readout.label: Ki

molecule	val
CC1CCc2cc(F)cc3c(CCN)cn1c23 (stereo unspecified)	2.34 µM
Cc1c(CCN)c2cccc3c2n1CCC3	0.676 µM
Cc1c(CCN)c2cc(F)cc3c2n1C(C)CC3 (stereo unspecified)	0.954 µM
NCCc1cn2c3c(cccc13)CCC2	0.794 µM
CNCCc1cn2c3c(cc(F)cc13)CCC2C (stereo unspecified)	1.46 µM
NCCc1cn2c3c(cc(Cl)cc13)SCC2	0.631 µM
